FYI, the data here is from paper PMC7181201.

target: P-gp (Homo sapiens); construct: doxorubicin resistant K562/DOX cell line overexpresses almost exclusively the transporter membrane protein P-gp; endogenous in cells; host or cells: K562/DOX (doxorubicin-selected human erythroleukemia cells); experiment: Rhodamine-123 uptake test on K562/DOX cells (flow cytometry); assay type: cell-based; conditions: compound 3 µM
Sequence (P08183 whole entry): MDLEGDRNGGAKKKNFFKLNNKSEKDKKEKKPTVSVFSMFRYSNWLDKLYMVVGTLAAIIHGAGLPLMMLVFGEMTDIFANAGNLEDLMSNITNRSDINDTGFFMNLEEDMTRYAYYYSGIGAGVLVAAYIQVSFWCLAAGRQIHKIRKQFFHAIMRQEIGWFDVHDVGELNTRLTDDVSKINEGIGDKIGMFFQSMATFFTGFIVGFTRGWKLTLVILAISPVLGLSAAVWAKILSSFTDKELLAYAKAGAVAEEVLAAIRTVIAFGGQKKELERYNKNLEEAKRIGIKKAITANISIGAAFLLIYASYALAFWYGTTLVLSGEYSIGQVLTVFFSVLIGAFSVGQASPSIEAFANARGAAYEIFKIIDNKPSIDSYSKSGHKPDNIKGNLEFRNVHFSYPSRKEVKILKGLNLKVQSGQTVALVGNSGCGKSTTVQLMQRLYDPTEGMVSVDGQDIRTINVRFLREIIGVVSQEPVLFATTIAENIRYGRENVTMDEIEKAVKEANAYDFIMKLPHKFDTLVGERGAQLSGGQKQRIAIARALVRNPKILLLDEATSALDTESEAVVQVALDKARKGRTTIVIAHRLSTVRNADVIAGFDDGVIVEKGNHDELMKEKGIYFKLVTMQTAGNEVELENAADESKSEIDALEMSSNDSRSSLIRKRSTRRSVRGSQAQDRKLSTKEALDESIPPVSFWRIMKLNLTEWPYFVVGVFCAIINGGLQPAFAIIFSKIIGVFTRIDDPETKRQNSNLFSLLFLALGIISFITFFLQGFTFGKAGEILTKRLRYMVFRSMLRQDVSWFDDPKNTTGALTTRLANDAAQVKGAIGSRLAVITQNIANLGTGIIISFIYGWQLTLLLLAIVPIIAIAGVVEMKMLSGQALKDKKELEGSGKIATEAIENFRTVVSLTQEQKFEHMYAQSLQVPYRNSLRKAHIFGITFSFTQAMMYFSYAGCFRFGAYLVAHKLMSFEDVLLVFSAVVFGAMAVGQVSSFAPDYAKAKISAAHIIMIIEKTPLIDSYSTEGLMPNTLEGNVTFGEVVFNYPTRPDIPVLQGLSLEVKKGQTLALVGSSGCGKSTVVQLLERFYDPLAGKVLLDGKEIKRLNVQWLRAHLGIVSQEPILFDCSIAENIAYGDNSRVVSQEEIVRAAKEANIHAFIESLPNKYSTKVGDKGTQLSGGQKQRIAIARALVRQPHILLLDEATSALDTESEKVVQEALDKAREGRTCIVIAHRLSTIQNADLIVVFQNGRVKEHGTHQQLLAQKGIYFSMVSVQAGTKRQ
measurement.name: FR (fluorescence ratio, Rhd 123 uptake with/without modulator)
// no unit, no text: just the number

item_smiles=CN(CCCCCOC(=O)COc1ccc2ccc(=O)oc2c1)CCCOC(=O)c1c2ccccc2cc2ccccc12 numeric_value=1.00
item_smiles=COc1cc(/C=C/C(=O)OCCCN(C)CCCCCOC(=O)COc2ccc3ccc(=O)oc3c2)cc(OC)c1OC numeric_value=1.57
item_smiles=COc1cc(/C=C/C(=O)OCCCCCN(C)CCCCCOC(=O)COc2ccc3ccc(=O)oc3c2)cc(OC)c1OC numeric_value=1.99
item_smiles=COc1cc(/C=C/C(=O)OCCCCCN(C)CCCOC(=O)c2ccc(S(N)(=O)=O)cc2)cc(OC)c1OC numeric_value=1.13
item_smiles=COc1cc(/C=C/C(=O)OCCCCCN(C)CCCOC(=O)COc2ccc3ccc(=O)oc3c2)cc(OC)c1OC numeric_value=1.00

Here's the next entry for you.
Q) Answer with reported FR (fluorescence ratio, Rhd 123 uptake with/without modulator) of `COc1cc(/C=C/C(=O)OCCCCCCN(C)CCCCOC(=O)c2ccc(S(N)(=O)=O)cc2)cc(OC)c1OC`
A) 1.01
